- PROTOCOL: Inhibitory activity towards Beta-Glucosidase from Almond

{"columns": ["MOLECULE", "RESULT_UNIT", "IC50"],
 "data": [
  ["OCC(O)[C@H]1NC[C@H](O)[C@@H]1O (stereo partly specified)", "µM", 120]
]}

====

- PROTOCOL: Inhibitory activity towards Alpha-mannosidase from Almond
REPORTED_METRIC: Ki (µM)

{"columns": ["COMPOUND", "OBSERVED_VALUE"],
 "data": [
  ["OC1CNC(CNCc2cccs2)C1O (stereo unspecified)", 98]
]}

====

- PROTOCOL: Inhibitory activity towards Alpha-mannosidase from Jack bean
pIC50: −log10 of the molar value.
REPORTED_METRIC: pIC50

{"columns": ["MOLECULE", "OBSERVED_VALUE"],
 "data": [
  ["OC(O)CC1NCC(O)C1O (stereo not given)", 3.74],
  ["OC1CNC(CNCC2CCN(Cc3ccccc3)CC2)C1O (stereo not given)", 3.15],
  ["NCC1NCC(O)C1O (stereo not given)", 3.77],
  ["C[C@@H](NCC1NCC(O)C1O)c1ccccc1 (stereo not given in full)", 3.36],
  ["OC1CNC(CNCn2ccnc2)C1O (stereo not given)", 3.15]
]}

====

Entries and their pIC50
- PROTOCOL: Inhibitory activity towards Beta-Glucosidase from Almond
pIC50: −log10 of the molar value.

{"columns": ["COMPOUND", "pIC50"],
 "data": [
  ["CC(NCC1NCC(O)C1O)C(O)(c1ccccc1)c1ccccc1 (configuration not stated)", 3.26],
  ["OC1CNC(CNCC2CCN(Cc3ccccc3)CC2)C1O (configuration not stated)", 3.37],
  ["OC1CNC(CNCc2ccccc2)C1O (configuration not stated)", 3.43],
  ["OC1CNC(CNCc2ccco2)C1O (configuration not stated)", 3.85],
  ["OC1CNC(CNCn2ccnc2)C1O (configuration not stated)", 3.38],
  ["CC(=O)N(Cc1ccccc1)CC1NCC(O)C1O (configuration not stated)", 3.37],
  ["OC1CNC(CNC2CCCC2)C1O (configuration not stated)", 3.30]
]}

====

- PROTOCOL: Inhibitory activity towards Alpha-mannosidase from Almond
REPORTED_METRIC: IC50

{"columns": ["MOLECULE", "OBSERVED_VALUE"],
 "data": [
  ["OC1CNC(CNCn2ccnc2)C1O (configuration not stated)", "570 µM"],
  ["NCC1NCC(O)C1O (configuration not stated) [2-Aminomethyl-pyrrolidine-3,4-diol]", "1000 µM"]
]}

====

- PROTOCOL: Inhibitory activity towards Alpha-mannosidase from jack bean
pIC50: −log10 of the molar value.

{"columns": ["MOLECULE", "pIC50"],
 "data": [
  ["CC(NCC1NCC(O)C1O)C(O)(c1ccccc1)c1ccccc1 (stereo not drawn)", 3.36],
  ["OCC(O)[C@H]1NC[C@H](O)[C@@H]1O (stereo partly drawn)", 3.10],
  ["OC1CNC(CNC2CCCC2)C1O (stereo not drawn)", 3.25]
]}

====

- PROTOCOL: Inhibitory activity towards Beta-Glucosidase from Almond

{"columns": ["COMPOUND", "Ki (µM)"],
 "data": [
  ["OC1CNC(CNCc2ccco2)C1O (stereo unspecified)", 12]
]}

====

- PROTOCOL: Inhibitory activity towards Alpha-mannosidase from Jack bean
Entries and their Ki

{"columns": ["COMPOUND", "Ki"],
 "data": [
  ["OC(O)CC1NCC(O)C1O (stereo not given)", "80 µM"],
  ["NCC1NCC(O)C1O (stereo not given)", "53 µM"],
  ["CC(NCC1NCC(O)C1O)C(O)(c1ccccc1)c1ccccc1 (stereo not given)", "170 µM"],
  ["OC1CNC(CNCc2cccs2)C1O (stereo not given)", "26 µM"],
  ["C[C@@H](NCC1NCC(O)C1O)c1ccccc1 (stereo not given in full)", "170 µM"]
]}
